Data provenance: PubChem BioAssay AID1159580

# PROCEDURE_TEXT: chemical genetic growth profiling, strain panel (AID 1159580);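 note: tested at 20 µM; growth read once vehicle control cultures reached saturation at 30 °C; 1 = growth at the plate median or of vehicle wells; lower values mean less growth of the strain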
# MEASUREMENT_CONDITIONS: S. cerevisiae deletion strains, growth OD, locus YFR019W, strain FAB1, hits give low values
The whole screen tested about 5,500 compounds, of which about 2,000 (36%) were called active. Not shown: some 18% with an inconclusive outcome. This is one part of the list.
# normalized growth values compiled below

{"columns": ["MOLECULE", "normalized growth"],
 "data": [
  ["CC1C(c2ccccc2)N(C)C(c2ccccc2)CC1(O)c1ccc(F)cc1 (centres undefined)", 0.996],
  ["CNC(=O)Sc1c(-c2ccc(Cl)cc2)nn(C(=O)NC)c1SC", 0.264],
  ["O=C(Oc1ccc2ccccc2c1C1SCCS1)c1ccc([N+](=O)[O-])o1", 0.923],
  ["Cc1c(S(=O)(=O)Nc2cccc([N+](=O)[O-])c2)sc2ccc(Cl)cc12", 0.975],
  ["N#CC(C#N)=Cc1c(-c2ccccc2Cl)[nH]c2ccccc12", 0.924],
  ["Cc1ccc(S(=O)(=O)Nc2nc(-c3ccc(C)c(Cl)c3)c(C)s2)cc1", 1.02],
  ["O=S(=O)(NCc1cc(Cl)cc(Cl)c1)c1cc(C(F)(F)F)cc(C(F)(F)F)c1", 0.902],
  ["Cc1noc(C)c1S(=O)(=O)Nc1csc(C(F)(F)F)c1-c1ccccc1", 1.01],
  ["CC1CCC(C(C)C)C(N(Cc2ccccc2)C(=O)c2ccccc2)C1 (centres undefined)", 0.954],
  ["O=C(Nc1cc(C(F)(F)F)cc(C(F)(F)F)c1)C(Cl)(Cl)Cl", 0.957],
  ["O=S(=O)(NCc1ccc(C(F)(F)F)cc1)c1cccc(C(F)(F)F)c1", 0.981],
  ["O=C(Nc1cc(Cl)ccc1O)c1ccccc1CSc1ccc(Cl)cc1", 0.753],
  ["Clc1cccc(Nc2ncc(-c3ccc4c(c3)OCCCO4)s2)c1", 0.898],
  ["O=S(=O)(Nc1cc(Cl)c(Cl)cc1Cl)c1cc(C(F)(F)F)cc(C(F)(F)F)c1", 0.916],
  ["O=C(Nc1ccncc1)c1cc(-c2ccccc2)oc1C(F)(F)F", 0.993],
  ["Brc1ccc(-c2csc(-c3cccnc3)n2)cc1", 0.677],
  ["Cc1ccc(-c2nc(NS(=O)(=O)c3cccc4nonc34)sc2C)cc1Cl", 0.997],
  ["CC1=CC(=O)N(c2ccc(F)c(Cl)c2)C1=O", 0.443],
  ["Clc1ccccc1-c1csc(-c2ccncc2)n1", 0.961],
  ["CC1=CC(=O)N(c2ccc(OC(F)(F)F)cc2)C1=O", 0.512],
  ["Clc1ccc(-c2cnc(Nc3cc(Cl)cc(Cl)c3)s2)cc1", 0.175],
  ["Cc1ccccc1/C=C/c1c[nH]c2ccccc12", 0.924],
  ["COc1ccc(-c2cn3cc(C)ccc3n2)cc1", 0.981],
  ["O=S(=O)(Nc1csc(C(F)(F)F)c1-c1ccccc1)c1cc(Br)c(Br)s1", 0.852],
  ["O=[N+]([O-])c1ccsc1Oc1cccc(C(F)(F)F)c1", 0.927],
  ["O=C(NNc1ccccc1)c1cc(-c2ccc(Cl)cc2)oc1C(F)(F)F", 0.779],
  ["CC(C)(C)C1=C(C#N)C(c2c(Cl)cccc2Cl)C(C#N)=C(N)O1 (centres undefined)", 1],
  ["N/C(=N/O)c1ccc(Oc2ccc(C3SCCS3)cc2)c([N+](=O)[O-])c1", 1.02],
  ["Clc1cc(Cl)cc(C=NCc2ccccc2)c1", 0.501]
]}
